Assay: probe aShh binding to arrayed compounds – biochemical, biotinylated probe, 635/667 nm fluorescence, primary screen (AID 1114);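 also: probe is biotin-labelled aShh protein from a stem cell growth factor screen; measures binding of labelled protein to compounds printed on the slide; score merges feature fluorescence at 667 nm with signal-to-noise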
Settings: small-molecule microarray, higher = more signal
observable: composite z-score

CC(=O)c1ccc(C(O)C2C=CC3C(=O)N(c4ccccc4)C(=O)C3N2Nc2ccc(C(C)C)cc2)cc1 (stereo not drawn)
0.0278
NC(=O)NCC#Cc1ccc2c(c1)[C@]1(C(=O)N2)[C@H](c2ccc(OCCO)cc2)N2[C@H](c3ccccc3)[C@H](c3ccccc3)OC(=O)[C@H]2[C@@H]1C(=O)O
-0.102
CCCCCCc1nc(-c2ccc(-c3ccc(Cl)c(Cl)c3)o2)cc2c1[Si](C(C)C)(C(C)C)OC2
-0.372
C=CCN1C(=O)[C@@]2(O[C@@H](CCn3cc([C@H](O)c4ccccc4)nn3)[C@H]([Si](C)(C)c3ccc(OC)cc3)[C@H]2C)c2cc(N3C(=O)c4cccc5cccc3c45)ccc21
-0.138
O=C1O[C@@H](c2ccccc2)[C@@H](c2ccccc2)N2[C@@H](c3ccc(OCCO)cc3)[C@]3(C(=O)Nc4ccc(C#CC5(O)CCCCCC5)cc43)[C@@H](C(=O)Nc3nc4ccccc4s3)[C@H]12
0.156
O=C(NCCN1CCOCC1)[C@@H]1c2ccccc2C(=O)N(Cc2ccccc2C(F)(F)F)[C@H]1c1ccc(CO)cc1
-0.73
O=C1C[C@@](C(=O)NC2CC2)(c2ccc([N+](=O)[O-])cc2)[C@@H](c2ccc(CO)cc2)N1C1CCCCC1
0.149
O=C(NC1CC1)[C@@H]1c2ccccc2C(=O)N(CC23CC4CC(CC(C4)C2)C3)[C@H]1c1ccc(CO)cc1
-0.138
O=C1NC(=O)C2C1C=CC(C(O)c1ccc([N+](=O)[O-])cc1)N2Nc1ccccn1 (stereo not drawn)
-0.138
CN(C)CCCC[C@@H]1NC(=O)[C@H]2C[C@@H](C(=O)O)[C@@H](c3ccc(O)cc3)N2C1=O
1.5
CC(C)(C)OC(=O)CC[C@@]1(C(=O)NCCN2CCOCC2)N=C(c2ccc(OCCCO)cc2)O[C@@H]1c1ccccc1CN=[N+]=[N-]
-0.324
Cc1ccc(N2C(=O)c3ccccc3[C@](C)(C(=O)NCCCN(C)C)[C@@H]2c2ccc(CO)cc2)nc1
-0.138
C=CCC(OC(C)=O)[C@@H]1[C@@H](N(Cc2ccc(-c3cccc(C(F)(F)F)c3)o2)C(=O)c2ccc(-c3ccccc3)cc2)c2cc(OCCCO)ccc2N1C(=O)c1ccc2ccccc2c1 (stereo partly drawn)
0.0121
Cc1ccc(S[C@]2(C(=O)NCCCN(C)C)CC(=O)N(Cc3ccccc3C(F)(F)F)[C@@H]2c2ccc(CO)cc2I)cc1
-0.403
CC(C)NC(=O)[C@@H]1c2ccccc2C(=O)N(Cc2ccc(OC(F)(F)F)cc2)[C@H]1c1ccc(CO)cc1
0.637
COc1ccc(CCNC(=O)[C@@H]2c3ccccc3C(=O)N(Cc3ccccc3OC)[C@H]2c2ccc(CO)cc2)cc1
-0.423
COC(=O)[C@@]1(Cc2ccc(F)cc2)[C@H]2c3cc(C(=O)N(C)C)n(CCc4ccc(O)c(O)c4)c3C[C@H]2CN1C(=O)c1ccccc1
-0.214
CN(C)c1ccc(C(O)C2C=CC3C(=O)N(Cc4ccccc4)C(=O)C3N2n2cnnc2)cc1 (stereo not drawn)
0.108
CN(C)CCCNC(=O)[C@@]1(Cc2ccccc2I)c2ccccc2C(=O)N(C2CCCCC2)[C@H]1c1ccc(CO)cc1
1.26
CCOC(=O)C[C@H]1[C@H](OC(=O)c2ccccc2-c2ccccc2)[C@@H](NC(=O)c2ccc3ccccc3c2)c2cc(OCCCO)ccc2N1C(=O)Cc1ccc(OC)cc1
0.112
COCCOC(=O)N1C(=O)[C@@]2(c3cc(C#CCC(C(=O)OC)C(=O)OC)ccc31)[C@H](C(N)=O)[C@H]1C(=O)O[C@H](c3ccccc3)[C@H](c3ccccc3)N1[C@@H]2c1ccc(O)cc1
0.0328
CCCC=C(CCC)[C@@H](NC(=O)c1ccc(C(F)(F)F)cc1)c1ccc(C(F)(F)F)cc1
0.778
COC(=O)C1(Cc2ccccc2)C=C2C(=C(C)C(=O)C2C)CN1 (stereo not drawn)
-0.0035
C=CCNC(=O)[C@H]1[C@@H]2C(=O)O[C@@H](c3ccccc3)[C@@H](c3ccccc3)N2[C@@H](c2ccccc2OCCO)[C@]12C(=O)N(C(=O)OCCOC)c1ccc(C#Cc3ccc(OC)cc3)cc12
-0.0011
COc1ccc(C(O)C2C=CC3C(=O)N(c4ccccc4)C(=O)C3N2Nc2ccc(C#N)cc2)cc1OCc1ccccc1 (stereo not drawn)
0.171
CN(C)CCCNC(=O)[C@@]1(C)c2ccccc2C(=O)N(Cc2ccc(OC(F)(F)F)cc2)[C@H]1c1ccc(CO)cc1
-0.0978
CN(C)CCCCNC(=O)[C@H]1C[C@H]2C(=O)N3CCC[C@H]3C(=O)N2[C@H]1c1cccc(OCCO)c1
0.134
[N-]=[N+]=Nc1ccccc1[C@H]1OC(c2ccc(OCCCO)cc2)=N[C@@]1(Cc1ccccc1)C(=O)NCC(O)CO (stereo partly drawn)
0.257
